test system: E-tag antibody; assay: ELISA analysis of phage on antibody raised against ETAG (positive control); settings: peptide binding to E-tag antibody; phage ELISA units read at 405 nm
Measured ETAG (OD), listed per entry.
metric: ETAG (OD)

- seq.text: "RVSYEMLGRRRRSMHGSSMR (DGI-2-20F-PP-A4; listed as Escherichia coli)"
  metric: "ETAG (OD)"
  assay.result: 6.6
- seq.text: "GASRVVDVGWRFWGKLWQRS (DGI-2-20F-PP-G5; listed as Escherichia coli)"
  metric: "ETAG (OD)"
  assay.result: 27.7
- seq.text: "EGNWFCAVFRGFCVGDRGPE (DGI-2-20R-3-A1; listed as Escherichia coli)"
  metric: "ETAG (OD)"
  assay.result: 11.1
- seq.text: "LAPMFLQNQVRTWAASRRPLPAGPSNARCETGSLSPWVPC (DGI-2-40F-3-B11; listed as Escherichia coli)"
  metric: "ETAG (OD)"
  assay.result: 7.9
- seq.text: "DGRGWGAMWMRWAEGLGADI (DGI-2-20R-4-G114; listed as Escherichia coli)"
  metric: "ETAG (OD)"
  assay.result: 16.5
- seq.text: "DRSRAPLCADKSGRWQRYRR (DGI-2-20F-PP-C10; listed as Escherichia coli)"
  metric: "ETAG (OD)"
  assay.result: 8.6
- seq.text: "YDQVWNSLLAAVLGGQELVN (DGI-2-20F-3-D112; listed as Escherichia coli)"
  metric: "ETAG (OD)"
  assay.result: 19.9
- seq.text: "GWGCSVPGILCVGGHRQGGG (DGI-2-20R-3-B11; listed as Escherichia coli)"
  metric: "ETAG (OD)"
  assay.result: 16.9
- seq.text: "RFWSVSYQGGRVMCREWGYCLPI (DGI-2-40F-3-C92; listed as Escherichia coli)"
  metric: "ETAG (OD)"
  assay.result: 9.8
- seq.text: "WVVALRRIRLGLRRGVECLL (DGI-2-20F-PP-D5; listed as Escherichia coli)"
  metric: "ETAG (OD)"
  assay.result: 33.6
- seq.text: "RRFVRCSVPVALRSAVPVSV (DGI-2-20F-PP-A10; listed as Escherichia coli)"
  metric: "ETAG (OD)"
  assay.result: 16.3
- seq.text: "SVSGGGVFGTGGRVRHQVSG (DGI-2-20F-PP-C5; listed as Escherichia coli)"
  metric: "ETAG (OD)"
  assay.result: 33.9
- seq.text: "MSTLQGPGHLFQMLRRASLG (DGI-2-20R-4-H12; listed as Escherichia coli)"
  metric: "ETAG (OD)"
  assay.result: 10.9
- seq.text: "TCWIHRGLNVVRYSVNFGVRDARLTTQGMAWFPPGCGQGCV (TCWHRGLNVVRYSVNFGVRDARLTTQGMAWFPPGCGQGCV; DGI-2-40F-4-E62; listed as Escherichia coli)"
  metric: "ETAG (OD)"
  assay.result: 14.8
- seq.text: "VVGYAQGDGLEGGLGSSRDGS (DGI-2-20F-PP-D8; listed as Escherichia coli)"
  metric: "ETAG (OD)"
  assay.result: 2.6
- seq.text: "VAFGEQJRVAMAGTLWQRWR (VAFGEQIRVAMAGTLWQRWR; not fully specified; non-natural residue J; DGI-2-20R-3-D5; listed as Escherichia coli)"
  metric: "ETAG (OD)"
  assay.result: 8.5
- seq.text: "GLYQRGLAPRCRGERFGVRN (DGI-2-20F-PP-C2; listed as Escherichia coli)"
  metric: "ETAG (OD)"
  assay.result: 6.0
- seq.text: "LPQSRWLSEAWASWVDGVVD (DGI-2-20F-4-F9; listed as Escherichia coli)"
  metric: "ETAG (OD)"
  assay.result: 19.6
- seq.text: "HGTRLRGVDYVMTWAGWQGYSSRKHVQQAVAGSSPGSDEL (DGI-2-40F-3-B1; listed as Escherichia coli)"
  metric: "ETAG (OD)"
  assay.result: 6.3
- seq.text: "GRWDGWEVCGIWGADDCASG (DGI-2-20R-4-H1; listed as Escherichia coli)"
  metric: "ETAG (OD)"
  assay.result: 14.0
- seq.text: "RMYNCHYIERLYDWHAGRJLLQDPA (RMYNCHYIERLYDWHAGRILLQDPA; not fully specified; non-natural residue J; DGI-2-20C-4-E926; listed as Escherichia coli)"
  metric: "ETAG (OD)"
  assay.result: 17.4
- seq.text: "YTPASILTGFQRGYEGAGNG (DGI-2-20R-4-G7; listed as Escherichia coli)"
  metric: "ETAG (OD)"
  assay.result: 11.6
- seq.text: "GAIRLSGAAWTASRTGGRAS (DGI-2-20F-PP-E7; listed as Escherichia coli)"
  metric: "ETAG (OD)"
  assay.result: 21.5
